Biological target: hOTC (human ornithine transcarbamylase) (Homo sapiens, UniProt P00480, H107N)
Assay: microscale thermophoresis, label-free
Format: binding
pKd: −log10 of the molar value.
value.type: pKd

• NC(=O)OP(=O)(O)O [CP, carbamoyl phosphate] = 4.60

====

Target: hOTC (human ornithine transcarbamylase) (Homo sapiens, UniProt P00480, H302L)
Experiment: microscale thermophoresis, label-free
pKd: −log10 of the molar value.
value.type: pKd

- NC(=O)OP(=O)(O)O [CP, carbamoyl phosphate]: 3.96
